Hello, the source for this data is patent US9334290B2, in case you need it.

Target or system UniProtKB O60674; recorded quantity IC50.
measured.metric: IC50 (nM)

compound	IC50 [nM]
Cc1c(-c2c(Cl)cc(C(N)=O)c3[nH]c4cc(C(C)(C)O)ccc4c23)cccc1-n1c(=O)c2cccc(F)c2n(C)c1=O (atropisomer, axis not shown)	910
Cc1c(-c2c(F)cc(C(N)=O)c3[nH]c4cc(C(C)(C)O)ccc4c23)cccc1-n1c(=O)cc2c(F)cccn2c1=O (single isomer, unassigned) [Example 40]	830

---

target: Jak2 tyrosine kinase (Homo sapiens (Human)); test: Jak2 tyrosine kinase assay; type: biochemical; details: selectivity of Btk over Jak2
Sequence (O60674 whole entry): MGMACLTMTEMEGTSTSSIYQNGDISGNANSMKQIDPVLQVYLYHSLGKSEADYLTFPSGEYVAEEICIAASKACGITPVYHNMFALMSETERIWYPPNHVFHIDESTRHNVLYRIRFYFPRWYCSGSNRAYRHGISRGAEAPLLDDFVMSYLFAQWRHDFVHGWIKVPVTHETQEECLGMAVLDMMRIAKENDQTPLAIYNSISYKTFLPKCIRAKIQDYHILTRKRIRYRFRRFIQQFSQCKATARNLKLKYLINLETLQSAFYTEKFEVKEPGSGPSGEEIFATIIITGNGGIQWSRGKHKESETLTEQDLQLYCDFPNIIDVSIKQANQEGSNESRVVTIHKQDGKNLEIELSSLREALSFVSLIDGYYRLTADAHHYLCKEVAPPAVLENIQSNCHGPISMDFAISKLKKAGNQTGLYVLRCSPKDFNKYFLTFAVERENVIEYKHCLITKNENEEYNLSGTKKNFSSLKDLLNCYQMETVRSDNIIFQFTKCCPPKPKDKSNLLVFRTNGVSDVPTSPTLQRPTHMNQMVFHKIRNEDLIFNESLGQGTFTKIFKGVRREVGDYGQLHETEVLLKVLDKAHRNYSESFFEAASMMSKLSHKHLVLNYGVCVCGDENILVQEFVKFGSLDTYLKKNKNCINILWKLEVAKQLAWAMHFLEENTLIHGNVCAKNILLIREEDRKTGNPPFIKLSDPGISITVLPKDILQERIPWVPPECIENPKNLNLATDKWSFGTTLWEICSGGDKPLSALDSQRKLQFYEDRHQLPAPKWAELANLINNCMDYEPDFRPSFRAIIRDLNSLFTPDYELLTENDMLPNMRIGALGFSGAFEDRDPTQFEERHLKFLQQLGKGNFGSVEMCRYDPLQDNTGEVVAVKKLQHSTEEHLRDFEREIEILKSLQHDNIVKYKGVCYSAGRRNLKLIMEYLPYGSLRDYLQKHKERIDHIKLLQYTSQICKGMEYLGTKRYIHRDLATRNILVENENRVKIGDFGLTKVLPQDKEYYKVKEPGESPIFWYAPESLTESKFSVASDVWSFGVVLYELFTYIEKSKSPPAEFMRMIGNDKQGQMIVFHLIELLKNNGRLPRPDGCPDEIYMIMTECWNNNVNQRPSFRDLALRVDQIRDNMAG
measured.metric: Ratio of Jak2/Btk IC50 values

Reference set (3 entries):
compound	target.system	Ratio of Jak2/Btk IC50 values
Cc1c(-c2c(C#N)cc(C(N)=O)c3[nH]c4cc(C(C)(C)O)ccc4c23)cccc1-n1c(=O)c2cccc(F)c2n(C)c1=O (single isomer, unassigned)	Jak2 tyrosine kinase (Homo sapiens (Human))	2400
Cc1c(-c2c(Cl)cc(C(N)=O)c3[nH]c4cc(C(C)(C)O)ccc4c23)cccc1-n1c(=O)cc2sccn2c1=O (single isomer, unassigned) [Example 38]	Jak2 tyrosine kinase (Homo sapiens (Human))	880
Cc1c(-c2c(Cl)cc(C(N)=O)c3[nH]c4c(c23)CC[C@H](C(C)(C)O)C4)cccc1-n1c(=O)[nH]c2c(F)cc(F)cc2c1=O (single isomer, unassigned)	Jak2 tyrosine kinase (Homo sapiens (Human))	1100

[a] COc1ccc2c(=O)n(-c3cccc(-c4c(Cl)cc(C(N)=O)c5[nH]c6cc(C(C)(C)O)ccc6c45)c3C)c(=O)n(C)c2c1 (single isomer, unassigned) [Example 6]
[b] Cc1c(-c2c(F)cc(C(N)=O)c3[nH]c4c(c23)CC[C@H](C(C)(C)O)C4)cccc1-n1c(=O)[nH]c2c(Cl)cccc2c1=O (single isomer, unassigned)
Qu. Larger number for Ratio of Jak2/Btk IC50 values: a , or b ? Provide the label of your selected option as the answer.
Ans. b

[A] Cc1c(-c2c(F)cc(C(N)=O)c3[nH]c4c(c23)CC[C@H](C(C)(C)O)C4)cccc1-n1c(=O)cc2c(F)cccn2c1=O (single isomer, unassigned) [Example 68]
[B] Cc1c(-c2c(F)cc(C(N)=O)c3[nH]c4cc(CCO)ccc4c23)cccc1-n1c(=O)cc2c(F)cccn2c1=O
[C] Cc1c(-c2c(Cl)cc(C(N)=O)c3[nH]c4cc(C(C)(C)O)ccc4c23)cccc1-n1c(=O)cc2c(F)cccn2c1=O (single isomer, unassigned) [Example 36]
[D] Cc1c(-c2c(Cl)cc(C(N)=O)c3[nH]c4cc(C(C)(C)O)ccc4c23)cccc1-n1c(=O)cc2c(F)cccn2c1=O [Example 34]
Qu. Could you please sort these 4 entries by Ratio of Jak2/Btk IC50 values from high to low? The response must list the labels following the requested ordering.
Ans. C, B, A, D
(C: 1600, B: 930, A: 630, D: 440)

---

Target or system Jak2 tyrosine kinase (Homo sapiens (Human)); recorded quantity IC50.
measured.metric: IC50 (µM)

[I] Cc1c(-c2c(F)cc(C(N)=O)c3[nH]c4cc(C(C)(C)O)ccc4c23)cccc1-n1c(=O)cc2c(F)cccn2c1=O (single isomer, unassigned) [Example 41]
[II] Cc1c(-c2c(Cl)cc(C(N)=O)c3[nH]c4c(c23)CC[C@H](C(C)(C)O)C4)cccc1-n1c(=O)[nH]c2c(F)cccc2c1=O (single isomer, unassigned) [Example 55]
Qu. Hi! Which is lower in terms of IC50, the first one I or the second one II ? Provide the label of your selected option as the answer.
Ans. I
(I: 0.8 µM, II: 9 µM)
